Hello, the source for this data is patent US8778964B2, in case you need it.

System: recombinant guanylate cyclase reporter cell line
procedure_summary: Action on recombinant guanylate cyclase reporter cell line (MEC)
Assay type: cell-based
recorded_conditions: in some cases mean values obtained from individual determinations
Counter-ions that a name gives are not always drawn.
Output true for minimal effective concentration not less than 0.3 µM; output false otherwise.

| molecule | test_target | category_label |
| --- | --- | --- |
| Cc1nc2c(OCc3c(F)cccc3F)cccn2c1C(=O)N[C@@H](CO)CCO [Example 129] | recombinant guanylate cyclase reporter cell line | true |
| Cc1nc2c(OCc3ccccc3)cccn2c1C(=O)N[C@@H](C)CO [Example 46] | recombinant guanylate cyclase reporter cell line | true |
| Cc1nc2c(OCC3CCCCC3)cccn2c1C(=O)N[C@H](CO)C(C)C [Example 93] | recombinant guanylate cyclase reporter cell line | true |
| Cc1nc2c(OCc3c(F)cccc3F)cccn2c1C(=O)NC1(CO)CCCC1 [Example 31] | recombinant guanylate cyclase reporter cell line | true |
| CCCC[C@H](CO)NC(=O)c1c(C)nc2c(OCc3cccc4c3OC(F)(F)O4)cccn12 [Example 12] | recombinant guanylate cyclase reporter cell line | true |
| Cc1nc2c(OCc3c(F)cccc3F)cccn2c1C(=O)NCCC(C)O (racemic) [Example 28] | recombinant guanylate cyclase reporter cell line | true |
| Cc1cc(OCCC(C(F)(F)F)C(F)(F)F)c2nc(C)c(C(=O)NC(CCCC(F)(F)F)C(C)(C)O)n2c1 (racemic) [Example 170] | recombinant guanylate cyclase reporter cell line | true |
| Cc1nc2c(OCc3c(F)cccc3F)cccn2c1C(=O)NC(CO)CCC(F)(F)F (single isomer, unassigned; ent-8) [Example 122] | recombinant guanylate cyclase reporter cell line | false |
| CCCC[C@H](CO)NC(=O)c1c(C)nc2c(OCc3cccc(C(F)(F)F)c3F)cccn12 [Example 14] | recombinant guanylate cyclase reporter cell line | true |
| CCCc1nc2c(OCC3CCCCC3)cccn2c1C(=O)N[C@@H](C)CO [Example 57] | recombinant guanylate cyclase reporter cell line | true |
| Cc1nc2c(OCC3CCCCC3)cccn2c1C(=O)NCCCCO [Example 74] | recombinant guanylate cyclase reporter cell line | false |
| Cc1nc2c(OCc3c(F)cccc3F)cccn2c1C(=O)N[C@@H](CO)CC(C)C [Example 39] | recombinant guanylate cyclase reporter cell line | false |
| CC[C@H](CO)NC(=O)c1c(C)nc2c(OCc3ccccc3)cccn12 [Example 17] | recombinant guanylate cyclase reporter cell line | true |
| Cc1nc2c(OCc3c(F)cccc3F)cccn2c1C(=O)NCCCO [Example 22] | recombinant guanylate cyclase reporter cell line | true |
| CCCC[C@H](CO)NC(=O)c1c(C)nc2c(OCc3c(F)cc(F)cc3F)cccn12 [Example 15] | recombinant guanylate cyclase reporter cell line | false |
| Cc1nc2c(OCc3cccc(Cl)c3Cl)cccn2c1C(=O)NC(CO)CO [Example 49] | recombinant guanylate cyclase reporter cell line | true |
| CCCC[C@H](CO)NC(=O)c1c(C)nc2c(OCc3c(F)ccc(F)c3F)cccn12 [Example 2] | recombinant guanylate cyclase reporter cell line | false |
| CCCC[C@H](CO)NC(=O)c1c(C)nc2c(OCc3cccc(C)c3F)cccn12 [Example 11] | recombinant guanylate cyclase reporter cell line | true |
| Cc1nc2c(OCc3c(F)cccc3F)cccn2c1C(=O)N[C@H]1c2ccccc2C[C@H]1O [Example 40] | recombinant guanylate cyclase reporter cell line | false |
| Cc1nc2c(OCC3CCCCC3)cccn2c1C(=O)N[C@@H](C)CO [Example 75] | recombinant guanylate cyclase reporter cell line | false |
| Cc1nc2c(OCC3CCCCC3)cccn2c1C(=O)NC(CO)CO [Example 85] | recombinant guanylate cyclase reporter cell line | true |
| C=CCC(CO)NC(=O)c1c(C)nc2c(OCC3CCCCC3)cccn12 (racemic) [Example 70] | recombinant guanylate cyclase reporter cell line | false |
| Cc1nc2c(OCC3CCCCC3)cccn2c1C(=O)NC1(CO)CCCC1 [Example 92] | recombinant guanylate cyclase reporter cell line | true |
| CCCC[C@H](CO)NC(=O)c1c(C)nc2c(OCc3ccccc3F)cccn12 [Example 5] | recombinant guanylate cyclase reporter cell line | false |
| Cc1nc2c(OCc3c(F)cccc3F)cccn2c1C(=O)NC(CCCC(F)(F)F)C(C)(C)O (racemic) [Example 150] | recombinant guanylate cyclase reporter cell line | false |
| Cc1nc2c(OCc3c(F)cccc3F)cccn2c1C(=O)NC(CO)c1ccc(F)cc1 (racemic) [Example 103, trifluoroacetate] | recombinant guanylate cyclase reporter cell line | false |
| Cc1nc2c(OCc3c(F)cccc3F)cccn2c1C(=O)NC(CC(F)(F)F)C(C)(C)O (single isomer, unassigned; ent-8) [Example 154] | recombinant guanylate cyclase reporter cell line | false |
